# assayText: Solubility of resveratrol in water / aqueous solution after stirring at room temperature (general statements)
# Format: physicochemical
# appliedConditions: 22 °C, thermodynamic from solid, after 1 hour stirring, distilled water, variation between measurements
attributeMeasured: solubility at 1 h

Task: Supply recorded solubility at 1 h for Oc1ccc(/C=C/c2cc(O)cc(O)c2)cc1 [Resveratrol, trans-3,5,4′-trihydroxystilbene] here.
Result: 1 to 6.5 µg/mL
